Biological target: Drosophila OR13a (Drosophila melanogaster, UniProt Q9VXL0)
Construct: expressed in transfected cells
Sequence (Q9VXL0 whole entry, one chain of several): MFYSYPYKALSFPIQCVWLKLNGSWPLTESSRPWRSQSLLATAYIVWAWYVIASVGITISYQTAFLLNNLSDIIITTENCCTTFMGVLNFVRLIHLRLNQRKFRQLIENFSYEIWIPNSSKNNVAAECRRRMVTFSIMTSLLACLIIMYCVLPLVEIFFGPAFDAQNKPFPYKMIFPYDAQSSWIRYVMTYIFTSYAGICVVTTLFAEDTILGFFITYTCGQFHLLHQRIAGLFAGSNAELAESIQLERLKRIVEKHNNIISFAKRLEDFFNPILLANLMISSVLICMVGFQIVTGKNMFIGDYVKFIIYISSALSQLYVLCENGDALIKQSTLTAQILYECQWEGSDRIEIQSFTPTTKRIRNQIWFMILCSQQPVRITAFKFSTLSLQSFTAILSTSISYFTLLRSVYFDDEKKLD
Assay: Calcium ion fluorescence (GCaMP6) assay, OR13a stable HEK293 cell line
Format: cell-based
Conditions: HEK293, read-out: OR13a response (VUAA1-normalized response), VOC concentration 1 μM
Property Name: activation at 1 µM (%)
A number alone suffices; assume %.

// solved cases for activation at 1 µM follow
[
  {
    "Molecule": "CC(=O)OCC(C)C [isobutyl acetate]",
    "Unit Symbol": "%",
    "Observed Measurement": 0
  },
  {
    "Molecule": "CCCCOC(=O)CC [butyl propanoate]",
    "Unit Symbol": "%",
    "Observed Measurement": 0
  },
  {
    "Molecule": "CC1=CCC2C(C1)C2(C)C (stereo not drawn)",
    "Unit Symbol": "%",
    "Observed Measurement": 0
  },
  {
    "Molecule": "CCOC(=O)c1ccccc1 [ethyl benzoate]",
    "Unit Symbol": "%",
    "Observed Measurement": 0
  },
  {
    "Molecule": "C=C1CC[C@H]2O[C@]2(C)CC[C@@H]2[C@@H]1CC2(C)C [(-)-caryophyllene oxide]",
    "Unit Symbol": "%",
    "Observed Measurement": 0
  },
  {
    "Molecule": "CCCCCCCO",
    "Unit Symbol": "%",
    "Observed Measurement": 0
  },
  {
    "Molecule": "O=Cc1ccccc1",
    "Unit Symbol": "%",
    "Observed Measurement": 0
  },
  {
    "Molecule": "COc1cccc(OC)c1",
    "Unit Symbol": "%",
    "Observed Measurement": 0
  },
  {
    "Molecule": "CCCCCC(=O)CC",
    "Unit Symbol": "%",
    "Observed Measurement": 0
  },
  {
    "Molecule": "C=CC(O)CCCCC (stereo not drawn)",
    "Unit Symbol": "%",
    "Observed Measurement": 31
  }
]

For the molecule C=CC(O)C/C=C\CC (stereo not drawn) , give its measured activation at 1 µM value.
0

Check the records and state activation at 1 µM for C=C1CCC2CC1C2(C)C (stereo not drawn)
8

---

Recorded Average response by entry
Molecular target: Drosophila OR49b (Drosophila melanogaster)
Construct: expressed in transfected cells
Sequence (Q9V6H2 whole entry, one chain of several): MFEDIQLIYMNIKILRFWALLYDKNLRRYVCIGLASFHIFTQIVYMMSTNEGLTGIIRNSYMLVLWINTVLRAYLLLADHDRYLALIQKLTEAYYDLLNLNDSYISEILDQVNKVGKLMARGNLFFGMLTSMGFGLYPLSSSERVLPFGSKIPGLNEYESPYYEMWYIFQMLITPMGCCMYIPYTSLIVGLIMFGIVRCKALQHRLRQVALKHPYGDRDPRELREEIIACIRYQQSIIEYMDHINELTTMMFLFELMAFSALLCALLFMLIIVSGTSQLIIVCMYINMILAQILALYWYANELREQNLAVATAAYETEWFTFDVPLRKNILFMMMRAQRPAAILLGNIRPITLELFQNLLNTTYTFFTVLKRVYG
Assay: cell-based
Details: OR49b cell line; odorant cc. 1 µM; mean of biological replicates
Respond numerically, and do not add a unit to the figure.

[
  {
    "Compound": "CC/C=C\\CCO",
    "Property Name": "Average response",
    "Observed Measurement": 0.0226
  },
  {
    "Compound": "CCCCCC(O)CC (stereo not shown)",
    "Property Name": "Average response",
    "Observed Measurement": 0.00
  },
  {
    "Compound": "CCCCCO",
    "Property Name": "Average response",
    "Observed Measurement": 0.00
  },
  {
    "Compound": "CCCCCCCCC=O",
    "Property Name": "Average response",
    "Observed Measurement": 0.00
  }
]

Write Average response of C=C1CC[C@H]2O[C@]2(C)CC[C@@H]2[C@@H]1CC2(C)C [(-)-caryophyllene oxide] ; system used: Drosophila OR49b (Drosophila melanogaster)
0.00

Provide Drosophila OR49b (Drosophila melanogaster) Average response reading for CCCOC(C)=O [propyl acetate] .
0.00

Give Average response for this entry on Drosophila OR49b (Drosophila melanogaster): C=C(C)C1CCC2(C)OC2C1 (single isomer, unassigned; (+)) [(+)-limonene oxide]
0.00

Param request: Average response | system Drosophila OR49b (Drosophila melanogaster) | item Cc1ccc(C)cc1
0.00

Give the observed Average response of CC(=O)OCC(C)C [isobutyl acetate] for Drosophila OR49b (Drosophila melanogaster).
0.05

Please respond with reported Average response (system Drosophila OR49b (Drosophila melanogaster)) for CC1=CC[C@@H](C(C)(C)O)CC1 .
0.00

For Drosophila OR49b (Drosophila melanogaster), give Average response of the listed compound: C=CC(O)CCCCC (stereo not shown)
0.00

Lab note: Drosophila OR49b (Drosophila melanogaster) assay, enter Average response for CCOC(=O)c1ccccc1 [ethyl benzoate] here
0.06

# return Average response for Cc1ccc(C)c(C)c1 , test system: Drosophila OR49b (Drosophila melanogaster)
0.00

---

Molecular target: Drosophila OR13a (Drosophila melanogaster, UniProt Q9VXL0)
Construct: expressed in transfected cells
Assay: Calcium ion fluorescence (GCaMP6) assay, OR13a stable HEK293 cell line
Format: cell-based
Conditions: HEK293, read-out: OR13a Average response (VUAA1-normalized), 100 μM VOC; 50 μM VUAA1 = 1; responses not exceeding 0.05 considered 0
# key: entry, value: activation at 100 µM
Give the number; % is assumed, so skip it.

See these solved cases before continuing.
[
  {
    "Compound": "Cc1ccc(C)c(C)c1 [1,2,4-trimethylbenzene]",
    "activation at 100 µM (%)": 0
  },
  {
    "Compound": "C=C1CCC2CC1C2(C)C (stereo not drawn) [beta-pinene]",
    "activation at 100 µM (%)": 3.25
  },
  {
    "Compound": "C=CC(O)CCCCC (centres unmarked) [1-octen-3-ol]",
    "activation at 100 µM (%)": 38
  },
  {
    "Compound": "CCCCCCCCCC=O [decanal]",
    "activation at 100 µM (%)": 0
  },
  {
    "Compound": "CCCCCC(=O)OCC [ethyl hexanoate]",
    "activation at 100 µM (%)": 0
  }
]

Given COC(=O)c1ccccc1O [methyl salicylate] , respond with its activation at 100 µM.
21

Entry CCCCCCCCCCC [undecane] needs its activation at 100 µM filled in; supply it.
0

Name the recorded activation at 100 µM of the compound listed here: CC1=CC[C@@H](C(C)(C)O)CC1 [alpha-terpineol]
0

// fetch activation at 100 µM given entry Cc1cccc(O)c1 [3-methylphenol]
1.35

For the compound CCCCOC(C)=O [butyl acetate] , give its reported activation at 100 µM.
1.56

Recall and state the measured activation at 100 µM for C=C1CC[C@H]2O[C@]2(C)CC[C@@H]2[C@@H]1CC2(C)C [(-)-caryophyllene oxide] .
0

Return the recorded activation at 100 µM value; entry: CCCCCC(C)=O [2-heptanone]
1.75

Given C=CCc1ccc(O)c(OC)c1 [eugenol] , respond with its activation at 100 µM.
0

Note activation at 100 µM for the compound shown: COC(=O)c1ccccc1 [methyl benzoate]
6

---

Target: Drosophila OR10a (Drosophila melanogaster)
Construct: expressed in transfected cells
Sequence (Q9VYZ1 1-406): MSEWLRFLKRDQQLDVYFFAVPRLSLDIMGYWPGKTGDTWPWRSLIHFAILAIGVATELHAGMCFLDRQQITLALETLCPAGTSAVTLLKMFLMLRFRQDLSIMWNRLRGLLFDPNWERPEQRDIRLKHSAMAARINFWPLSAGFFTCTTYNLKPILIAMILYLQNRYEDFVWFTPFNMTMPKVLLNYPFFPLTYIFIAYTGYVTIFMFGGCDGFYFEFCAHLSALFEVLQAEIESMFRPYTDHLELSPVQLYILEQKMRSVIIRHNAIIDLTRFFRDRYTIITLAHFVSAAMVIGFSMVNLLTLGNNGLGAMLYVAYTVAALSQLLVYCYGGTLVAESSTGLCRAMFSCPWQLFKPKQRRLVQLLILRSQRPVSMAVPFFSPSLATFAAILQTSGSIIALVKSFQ
Sequence (Q9VNB5 1-486 partner): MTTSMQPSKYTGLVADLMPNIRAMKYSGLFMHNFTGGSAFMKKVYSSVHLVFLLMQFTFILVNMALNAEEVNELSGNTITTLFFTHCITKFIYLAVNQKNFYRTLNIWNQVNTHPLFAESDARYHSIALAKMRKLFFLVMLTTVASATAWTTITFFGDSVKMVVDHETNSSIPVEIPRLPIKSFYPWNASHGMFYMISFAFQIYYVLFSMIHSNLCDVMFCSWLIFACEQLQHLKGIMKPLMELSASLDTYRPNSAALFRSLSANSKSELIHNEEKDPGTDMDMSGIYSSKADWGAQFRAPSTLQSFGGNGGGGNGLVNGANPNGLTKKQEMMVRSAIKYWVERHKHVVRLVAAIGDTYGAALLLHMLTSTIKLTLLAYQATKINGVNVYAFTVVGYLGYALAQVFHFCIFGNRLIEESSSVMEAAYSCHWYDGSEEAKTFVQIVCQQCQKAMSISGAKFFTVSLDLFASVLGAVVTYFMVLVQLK
Assay: Calcium ion fluorescence (GCaMP6) assay, OR10a stable HEK293 cell line
Format: cell-based
Details: ligand concentration 1 (unit not given); threshold 0.05, below shown as 0
Property Name: DF norm AVERAGE OR10a
Output spec: single numeric token, no unit.

Example entries and their recorded answers appear below.
[
  {
    "Molecule": "CCCCCC(=O)OCC [ethyl hexanoate]",
    "DF norm AVERAGE OR10a": 0.06289
  },
  {
    "Molecule": "CC(=O)c1ccccc1 [acetophenone]",
    "DF norm AVERAGE OR10a": 0
  },
  {
    "Molecule": "COC(=O)c1ccccc1O [methyl salicylate]",
    "DF norm AVERAGE OR10a": 0.4904
  }
]

Kindly indicate its recorded DF norm AVERAGE OR10a. Item: CCCCCOC(C)=O [pentyl acetate]
0.109

Kindly indicate its recorded DF norm AVERAGE OR10a. Item: CCOC(=O)c1ccccc1 [ethyl benzoate]
0.2908
